Experiment: Oral bioavailability in Sprague-Dawley rat at 25 mg/kg by LC-MS/MS analysis
Format: ADME, organism-based
Settings: in vivo
outcome_measure: bioavailability (%)
Just the number in %, nothing appended.

Challenge: Query: bioavailability; subject: COC(=O)[C@H](Cc1ccccc1)NC(=O)/C=C/c1ccc(O)c(O)c1 [N-CAFFEOYL-PHENYLALANINE METHYL ESTER]
Response given: 15.2

---

Experiment: Cmax in Sprague-Dawley rat at 25 mg/kg, po by LC-MS/MS analysis
Assay type: ADME, organism-based
Design: dose 25 mg/kg, route oral
Settings: in vivo
outcome_measure: Cmax (ng/mL)
Just the number in ng/mL, nothing appended.

Challenge: Query: Cmax; subject: `COC(=O)[C@H](Cc1ccccc1)NC(=O)/C=C/c1ccc(O)c(O)c1`
Response given: 808

---

Test: Half life in Sprague-Dawley rat at 5 mg/kg, iv by LC-MS/MS analysis
Assay type: ADME, organism-based
Conditions: in vivo
outcome_measure: half-life (min)
Just the number in min, nothing appended.

Challenge: Query: half-life; subject: `COC(=O)[C@H](Cc1ccccc1)NC(=O)/C=C/c1ccc(O)c(O)c1`
Response given: 51

---

Experiment: Induction of apoptosis in non-stimulated human SH-SY5Y cells assessed as viable cells at 10 uM measured after 6 hrs by Annexin V-FITC/propidium iodide staining based flow cytometry (reference value: 92.5%)
Type: cell-based
Conditions: read-out: Activity
outcome_measure: viability at 6 h, 10 µM (%)
Just the number in %, nothing appended.

Challenge: Query: viability at 6 h, 10 µM; subject: COC(=O)[C@H](Cc1ccccc1)NC(=O)/C=C/c1ccc(O)c(O)c1 [N-CAFFEOYL-PHENYLALANINE METHYL ESTER]
Response given: 94.8

---

Experiment: Tmax in Sprague-Dawley rat at 25 mg/kg, po by LC-MS/MS analysis
Type: ADME, organism-based
Details: in vivo
outcome_measure: Tmax (h)
Just the number in h, nothing appended.

Challenge: Query: Tmax; subject: COC(=O)[C@H](Cc1ccccc1)NC(=O)/C=C/c1ccc(O)c(O)c1 [N-CAFFEOYL-PHENYLALANINE METHYL ESTER]
Response given: 2

---

Tested on: SH-SY5Y
Assay: Neuroprotection against H2O2-induced cell death in human SH-SY5Y cells at 100 uM preincubated for 6 hrs followed by H2O2 addition and measured after 24 hrs by MTT assay relative to control
Format: functional
Measured Activity of individual entries

Recorded Activity, per entry:
- entry_smiles: "COC(=O)[C@H](Cc1ccccc1)NC(=O)/C=C/c1ccccc1"
  Activity: "<50%"
- entry_smiles: "COC(=O)[C@H](Cc1ccc(O)c(O)c1)NC(=O)/C=C/c1ccc(O)c(OC)c1"
  Activity: ">50%"
- entry_smiles: "COC(=O)[C@H](Cc1ccc(O)cc1)NC(=O)/C=C/c1cccc(O)c1"
  Activity: "<50%"

Now for another entry.
Challenge: Observed Activity on SH-SY5Y for `COC(=O)[C@H](Cc1ccccc1)NC(=O)/C=C/c1ccc(O)c(O)c1` , please.
Response given: >50%
